Each recorded value in this set is attributed to PubChem BioAssay (EPA / NIEHS).

- Read-out: Insulin Like Growth Factor 1 (IGF1), IGF1 (gene 3479)
- test-method-notes: LTEA_HepaRG_IGF1: Life Technologies and Expression Analysis (LTEA) Assay for Insulin Like Growth Factor 1 (IGF1) using HepaRG (AID 2283506)
- recorded-conditions: mRNA level, 48 h; actives raise or lower the signal
Calls of active or inactive are those of the source. Rule for the calls: active = hit-call score of the fitted dose curve at least 0.9, where 1 is the maximum; inactive = score below 0.9.
metric: AC50

// known answers, use as guide
compound	AC50
Nc1cc2c3c(c1)C(c1ccccc1)=N[C@@H](NC(=O)c1cccnc1)C(=O)N3CC2	11.8 µM (active)
CCN(CC)c1ccccc1	inactive
CN(C)C(=O)Cl	inactive
CCNc1nc(Cl)nc(NC(C)(C)C)n1	13.1 µM (active)
COCCOCCO	inactive

Query: Value lookup for AC50; key = c1ccc(OP(Oc2ccccc2)Oc2ccccc2)cc1
Response: inactive

Query: Which AC50 value belongs to CCCCCCCc1ccc(O)cc1 ?
Response: inactive

Query: Endpoint output: AC50 of CSC(C)(C)C=NO . Value?
Response: inactive

Query: Param item = O=P(Oc1ccccc1)(Oc1ccccc1)Oc1ccccc1 ; retrieve measured AC50.
Response: 4.15 µM (active)

Query: AC50; subject: Cc1ccc(N)cc1N
Response: inactive

Query: // AC50 lookup, key: c1nc[nH]n1
Response: inactive

Query: # get_value(readout='AC50', item= OCC1CO1 (centres undefined) )
Response: inactive

Query: Need AC50, item CCOc1ccc(C(C)(C)COCc2cccc(Oc3ccccc3)c2)cc1
Response: 12.4 µM (active)

Query: I'd like to know its AC50. The compound in question is CCOP(=S)(OCC)SCSCC
Response: inactive

Query: Recorded AC50 of CC(Cc1ccc(OCC(=O)O)cc1)NCC(O)c1csc(C(F)(F)F)n1 (centres undefined) , please.
Response: inactive

Query: AC50 lookup needed for CCCCN(CCCC)N=O , thanks.
Response: inactive

Query: # query: AC50 of entry ClC1=C(Cl)C2(Cl)C3C(Cl)C(Cl)CC3C1(Cl)C2(Cl)Cl (centres undefined)
Response: 23.5 µM (active)

Query: Field request: AC50 | item: O=P1(N(CCCl)CCCl)NCCCO1 (centres undefined)
Response: inactive

Query: AC50; subject: CC(Cl)(Cl)C(=O)O
Response: inactive

Query: What does the data say about its AC50? Entry: ClC(Cl)(Cl)c1ccccc1
Response: inactive

Query: // query AC50 value for entry CCOS(=O)(=O)OCC
Response: inactive

Query: For CCC(C)(C)c1ccc(O)cc1 , what is its reported AC50?
Response: inactive

Query: Any idea what its AC50 is? The compound is O=C(O)C1C(C(=O)O)C2(Cl)C(Cl)=C(Cl)C1(Cl)C2(Cl)Cl (centres undefined)
Response: inactive

Query: Give its AC50 value. Item: Cc1cccc(N)c1
Response: inactive
